The measured values listed here are drawn from the supplement of paper PMC4466140.

Listed here: items and their measured SPOT peptide array binding signal intensity.
Target of assay: SpCyk3
Procedure text: SPOT peptide array binding signal intensity (averaged, normalized) (arbitrary units (background-subtracted, floor 0; scale differs between SH3 domains)); higher = stronger binding of the SH3 domain to the peptide
Metric: SPOT peptide array binding signal intensity

# Binder, Bound type, Recorded value
data = [
    ("APKHAPPPVPNETDN", "≤", 0),
    ("KMSRSPPRPPSLKII", "=", 9),
    ("EVTPKVPERPSRRKT", "=", 0.75),
    ("VDFTLPPPPPPPGLD", "=", 1),
    ("GAGERPRLVPRPINV", "=", 8),
    ("RPVPPPPPMRTTTEG", "=", 112),
    ("NNFYRPLLRSVLVLL", "=", 6.5),
]
